The measurements presented in this section are drawn from paper PMC9502701.

The following compounds have recorded IC50 on UniProt Q6DPL2.
Sequence (Q6DPL2 whole entry, looked up): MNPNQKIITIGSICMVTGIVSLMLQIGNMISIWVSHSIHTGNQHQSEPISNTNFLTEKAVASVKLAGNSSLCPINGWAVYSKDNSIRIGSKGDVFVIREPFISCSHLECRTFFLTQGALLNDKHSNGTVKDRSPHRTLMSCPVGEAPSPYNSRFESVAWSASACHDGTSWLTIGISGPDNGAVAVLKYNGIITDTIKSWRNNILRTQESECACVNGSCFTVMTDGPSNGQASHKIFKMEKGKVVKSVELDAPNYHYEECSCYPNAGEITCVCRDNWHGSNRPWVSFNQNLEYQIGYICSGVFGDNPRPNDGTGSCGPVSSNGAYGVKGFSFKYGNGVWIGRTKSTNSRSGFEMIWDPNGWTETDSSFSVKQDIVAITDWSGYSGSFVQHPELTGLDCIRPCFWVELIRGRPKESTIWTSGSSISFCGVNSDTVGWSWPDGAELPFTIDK
readout-name: IC50 (µM)

# compound, uom, measured
records = [
    ("O=C(/C=C/c1ccc(O)c(O)c1)O[C@@H]1[C@H](O)C[C@@](O)(C(=O)O)C[C@H]1OC(=O)/C=C/c1ccc(O)c(O)c1 [4,5-Di-O-caffeoylquinic acid]", "µM", 132),
    ("O=C(/C=C/c1ccc(O)c(O)c1)O[C@@H]1C[C@@](O)(C(=O)O)C[C@@H](O)[C@@H]1O [Neochlorogenic acid, neochlorogenic acid]", "µM", 157),
    ("O=C(/C=C/c1ccc(O)c(O)c1)O[C@H]1[C@H](O)C[C@](O)(C(=O)O)C[C@H]1O [Cryptochlorogenic acid, cryptochlorogenic acid]", "µM", 290),
]

====

molecular target: UniProt:Q6DPL2; assay type: biochemical; conditions: 100 μg/mL standard compounds
Measured Inhibition Rate (%) by item

# compound-structure, target-or-test-system, uom, Inhibition Rate (%)
data = [
    ("O=C(/C=C/c1ccc(O)c(O)c1)O[C@@H]1[C@H](O)C[C@@](O)(C(=O)O)C[C@H]1OC(=O)/C=C/c1ccc(O)c(O)c1", "UniProt:Q6DPL2", "%", 75.90),
    ("O=C(/C=C/c1ccc(O)c(O)c1)O[C@@H]1C[C@@](O)(C(=O)O)C[C@@H](O)[C@@H]1O", "UniProt:Q6DPL2", "%", 76.00),
    ("C=C[C@H]1[C@H](O[C@@H]2O[C@H](CO)[C@@H](O)[C@H](O)[C@H]2O)OC=C(C(=O)OC)[C@H]1CC(=O)O", "UniProt:Q6DPL2", "%", 37.74),
    ("O=C(/C=C/c1ccc(O)c(O)c1)O[C@H]1[C@H](O)C[C@](O)(C(=O)O)C[C@H]1O", "UniProt:Q6DPL2", "%", 54.89),
]
